- Tested on: monocytic THP1 cells infected with HIV VSV-G pseudotyped GFP-NEF reporter virus
- test_protocol: cells
- Type: cell-based
- condition_info: Human immunodeficiency virus 1, THP-1, 24 h
Rule: EC50 below 100 nM gives TRUE, anything at or above gives FALSE.

Answered cases to consult:
molecule: Cc1cc(/C=C/C#N)cc(C)c1Oc1nc(NC23CC(C#N)(C2)C3)nc2c1[C@H]1OC[C@H](F)CN1C2=O (single isomer, unassigned) [Compound 281]
group: TRUE
//
molecule: Cc1cc(/C=C/C#N)cc(C)c1Oc1nc(NC23CC(C#N)(C2)C3)nc2c1C1(C)OCC(C(F)(F)F)CN1C2=O (centres unmarked) [Example 253]
group: FALSE
//
molecule: Cc1cc(/C=C/C#N)cc(C)c1Oc1nc(NC23CC(C#N)(C2)C3)nc2[nH]nc(C(C)C)c12 [Compound 126]
group: FALSE
//
molecule: Cc1cc(/C=C/C#N)cc(C)c1Oc1nc(NC23CC(C#N)(C2)C3)nc2c1C1(C)OCCCN1C2=O (centres unmarked) [Compound 314]
group: TRUE
//
molecule: Cn1cc2c(Oc3c(F)cc(/C=C/C#N)cc3Cl)nc(NC34CC(C#N)(C3)C4)nc2n1 [Compound 5]
group: TRUE
//
molecule: Cc1cc(/C=C/C#N)cc(C)c1Oc1nc(NC23CC(C#N)(C2)C3)nc2ncn(CC(F)(F)F)c12 [Compound 106]
group: FALSE
//
molecule: Cc1cc(/C=C/C#N)cc(C)c1Oc1nc(NC23CC(C#N)(C2)C3)nc2nnn(C(F)F)c12 (single isomer, unassigned) [Compound 11]
group: TRUE
//
molecule: Cc1cc(/C=C/C#N)cc(C)c1Oc1nc(NC23CC(C#N)(C2)C3)nc2c1C(C)N(C1COC1)C2=O (centres unmarked) [Example 208]
group: TRUE
//
molecule: Cc1cc(/C=C/C#N)cc(C)c1Oc1nc(NC23CC(C#N)(C2)C3)nc2c1C(C)(O)N(CC(F)F)C2=O (centres unmarked) [Example 238]
group: TRUE
//
molecule: Cc1cc(/C=C/C#N)cc(C)c1Oc1nc(NC23CC(C#N)(C2)C3)nc2onc(C)c12 [Compound 142]
group: TRUE

Q: Identify whether the molecule Cc1cc(/C=C/C#N)cc(C)c1Oc1nc(NC23CC(C#N)(C2)C3)nc2ccn(C)c12 [Example 250] records EC50 below 100 nM.
Result: TRUE

Q: Proceed to Cc1cc(/C=C/C#N)cc(C)c1Oc1nc(NC23CC(C#N)(C2)C3)nc2nc(C3CCCC3)[nH]c12 [Compound 53]
Result: FALSE

Q: Proceed to Cc1cc(/C=C/C#N)cc(C)c1Oc1nc(NC23CC(C#N)(C2)C3)nc2nc(C3CCC(F)(F)CC3)[nH]c12 [Compound 54]
Result: FALSE

====

Quick list: pEC50 per entry.
- Test system: monocytic THP1 cells infected with HIV VSV-G pseudotyped GFP-NEF reporter virus
- test_protocol: cells
- Assay type: cell-based
- condition_info: Human immunodeficiency virus 1, THP-1, 24 h
Quick note: pEC50 means taking -log10 of the concentration in moles per liter.

Q: Which measured pEC50 value corresponds to Cc1cc(/C=C/C#N)cc(C)c1Oc1nc(NC23CC(C#N)(C2)C3)nc2c1nc(C)n2CC(F)F (single isomer, unassigned) ?
Result: 6.55

Q: Proceed to "Cc1cc(/C=C/C#N)cc(C)c1Oc1nc(NC23CC(C#N)(C2)C3)nc2occ(C)c12"
Result: 7.06

Q: Proceed to Cc1cc(/C=C/C#N)cc(C)c1Oc1nc(NC23CC(C#N)(C2)C3)nc2c1C(C)N(Cc1nccn1C)C2=O (stereo not shown)
Result: 7.36

Q: Proceed to Cc1cc(/C=C/C#N)cc(C)c1Oc1nc(NC23CC(C#N)(C2)C3)nc2c1C1OCCCN1C2=O (racemic)
Result: 7.51

Q: Proceed to "Cc1cc(/C=C/C#N)cc(C)c1Oc1nc(NC23CC(C#N)(C2)C3)nc2nn3c(c12)CCC3"
Result: 7.64

Q: Proceed to Cc1cc(/C=C/C#N)cc(C)c1Oc1nc(NC23CC(C#N)(C2)C3)nc2c1C(C)N(CCN1CCOCC1)C2=O (stereo not shown)
Result: 7.23

Q: Proceed to Cc1cc(/C=C/C#N)cc(C)c1Oc1nc(NC23CC(C#N)(C2)C3)nc2c1C(C)N(C1CCOCC1)C2=O (stereo not shown)
Result: 6.96

====

- Test system: monocytic THP1 cells infected with HIV VSV-G pseudotyped GFP-NEF reporter virus
- test_protocol: cells
- Type: cell-based
- condition_info: Human immunodeficiency virus 1, THP-1, 24 h
Quick list: pEC50 per entry.
Quick note: pEC50 means taking -log10 of the concentration in moles per liter.

compound: Cc1cc(/C=C/C#N)cc(C)c1Oc1nc(NC23CC(C#N)(C2)C3)nc2c1nnn2C [Compound 129]
measure: pEC50
value_measured: 6.77

Q: Which measured pEC50 value corresponds to Cc1cc(/C=C/C#N)cc(C)c1Oc1nc(NC23CC(C#N)(C2)C3)nc2c1C(C)N(CCc1cn(C)cn1)C2=O (centres unmarked) [Example 209] ?
Result: 7.24

Q: Proceed to Cc1cc(/C=C/C#N)cc(C)c1Oc1nc(NC23CC(C#N)(C2)C3)nc2c1[C@@]1(C)O[C@H]3CC[C@H]3N1C2=O (relative stereo) [Compound 285]
Result: 7.03

Q: Proceed to Cc1cc(/C=C/C#N)cc(C)c1Oc1nc(NC23CC(C#N)(C2)C3)nc2c1nc(C)n2C(F)F [Compound 15]
Result: 6.96

====

Quick list: EC50 per entry.
- Test system: monocytic THP1 cells infected with HIV VSV-G pseudotyped GFP-NEF reporter virus
- test_protocol: cells
- Type: cell-based
- condition_info: Human immunodeficiency virus 1, THP-1, 24 h

Q: Which measured EC50 value corresponds to Cc1cc([C@H]2C[C@@H]2C#N)cc(C)c1Oc1nc(NC23CC(C#N)(C2)C3)nc2nn(C)cc12 (single isomer, unassigned) [Compound 133] ?
Result: 511 nM

Q: Proceed to "Cc1cc(/C=C/C#N)cc(C)c1Oc1nc(NC23CC(C#N)(C2)C3)nc2nn(CCC(F)F)c(C)c12"
Result: 22.4 nM

Q: Proceed to Cc1cc(/C=C/C#N)cc(C)c1Oc1nc(NC23CC(C#N)(C2)C3)nc2c1[C@]1(C)O[C@@H]3CC[C@@H]3N1C2=O (single isomer, unassigned)
Result: 34.9 nM

Q: Proceed to Cc1cc([C@H]2C[C@@H]2C#N)cc(C)c1Oc1nc(NC23CC(C#N)(C2)C3)nc2nn(C)cc12 (racemic) [Compound 132]
Result: 267 nM

Q: Proceed to Cc1cc(/C=C/C#N)cc(C)c1Oc1nc(NC23CC(C#N)(C2)C3)nc2c1C(C)N(CC1CC1)C2=O (stereo not drawn)
Result: 125 nM

Q: Proceed to "CNC(=O)Cn1nc(C)c2c(Oc3c(C)cc(/C=C/C#N)cc3C)nc(NC34CC(C#N)(C3)C4)nc21"
Result: 37.1 nM

====

- Test system: monocytic THP1 cells infected with HIV VSV-G pseudotyped GFP-NEF reporter virus
- test_protocol: cells
- Format: cell-based
- condition_info: Human immunodeficiency virus 1, THP-1, 24 h
measure: pEC50
Quick note: pEC50 means taking -log10 of the concentration in moles per liter.

Q: Which pEC50 is reported with monocytic THP1 cells infected with HIV VSV-G pseudotyped GFP-NEF reporter virus for this entry: "Cc1cc(/C=C/C#N)cc(C)c1Oc1nc(NC23CC(C#N)(C2)C3)nc2nc(C(C)(C)O)[nH]c12" ?
Result: 6.43

Q: Proceed to "Cc1cc(/C=C/C#N)cc(C)c1Oc1nc(NC23CC(C#N)(C2)C3)nc2nc(Nc3ccccn3)[nH]c12"
Result: 6.56

Q: Proceed to "Cc1cc(/C=C/C#N)cc(C)c1Oc1nc(NC23CC(C#N)(C2)C3)nc2c(=O)n(C)[nH]c12"
Result: 6.41

====

- System: CD4 cells, isolated from healthy donor PMBCs, infected with HIV VSV-G pseudotyped GFP-GAG reporter virus
- test_protocol: tissue or blood
- Format: cell-based
- condition_info: Homo sapiens, 72 h
pEC50: −log10 of the molar value.
Values of pEC50 greater than or equal to 7 map to Condition met; values below map to Condition not met.

Answered cases to consult:
compound: Cc1cc(/C=C/C#N)cc(C)c1Oc1nc(NC23CC(C#N)(C2)C3(F)F)nc2c1CCO2
group: Condition met

compound: Cc1cc(/C=C/C#N)cc(C)c1Oc1nc(NC23CC(C#N)(C2)C3)nc2cnn(C)c12
group: Condition met

compound: Cc1cc(/C=C/C#N)cc(C)c1Oc1nc(NC23CC(CC(F)F)(C2)C3)nc2nc[nH]c12
group: Condition not met

compound: Cc1cc(/C=C/C#N)cc(C)c1Oc1nc(NC23CC(C4COC4)(C2)C3)nc2[nH]nc(C)c12
group: Condition not met

Here is another compound to look at.
Q: Given Cc1cc(/C=C/C#N)cc(C)c1OC1=NC(NC23CC(C#N)(C2)C3)=NC2N=CN(C)C12 (centres unmarked) , state whether its pEC50 is at least 7.
Result: Condition met

All values here come from patent US20250333424A1.
